Reference source: PubChem BioAssay AID1963836

- System: 857933-349-R-J2-PDC complex spheroid viability
- run.description: Anticancer human tumor 857933-349-R-J2-PDC patient-derived colon adenocarcinoma cell line growth inhibition [POLQ]
- assay.setup: second compound 3.16 µM; first compound 10 µM; active compounds read low
Field: class. Source value: viability, T/C. Ranges: low bracket (below 40%), middle bracket (40% to below 80%), high bracket (80% or more)

{"compound": "O=c1[nH]cc(F)c(=O)[nH]1 + Nc1ccc(C#CCN(C(=O)Cc2ncc(C(F)(F)F)cc2C(F)(F)F)c2ccc(F)cc2)nn1", "answer.label": "low bracket"}
{"compound": "Nc1ccn(C2OC(CO)C(O)C2(F)F)c(=O)n1 (stereo unspecified) + Nc1ccc(C#CCN(C(=O)Cc2ncc(C(F)(F)F)cc2C(F)(F)F)c2ccc(F)cc2)nn1", "answer.label": "low bracket"}
{"compound": "O=C(c1cc(Cc2n[nH]c(=O)c3ccccc23)ccc1F)N1CCN(C(=O)C2CC2)CC1 + Nc1ccc(C#CCN(C(=O)Cc2ncc(C(F)(F)F)cc2C(F)(F)F)c2ccc(F)cc2)nn1", "answer.label": "high bracket"}
{"compound": "CC1COCCN1c1cc(C2(O)CC3CCC(C2)O3)c2cnn(-c3ccn[nH]3)c2n1 (stereo unspecified) + COC1C(OC(N)=O)C(O)C(Oc2ccc3c(O)c(NC(=O)c4ccc(O)c(CC=C(C)C)c4)c(=O)oc3c2C)OC1(C)C", "answer.label": "middle bracket"}
{"compound": "C#Cc1c(F)ccc2cc(O)cc(-c3ncc4c(N5CC6CCC(C5)N6)nc(OCC56CCCN5CC(F)C6)nc4c3F)c12 (stereo unspecified) + Nc1ccc(C#CCN(C(=O)Cc2ncc(C(F)(F)F)cc2C(F)(F)F)c2ccc(F)cc2)nn1", "answer.label": "middle bracket"}
{"compound": "COc1ccc([C@@H](O)c2cc(-c3ncnc4cc(N5CCOCC5)ccc34)c(F)cc2Cl)nn1 + Cc1cccc(N(C)C(=O)C2C(O)CCN2c2nc(C)cc(C(F)(F)F)c2C#N)c1", "answer.label": "middle bracket"}
{"compound": "COc1cc2cc(C(=O)CCC(=O)O)sc2cc1OC + Cc1cccc(N(C)C(=O)C2C(O)CCN2c2nc(C)cc(C(F)(F)F)c2C#N)c1", "answer.label": "high bracket"}
{"compound": "O=C(c1cc(Cc2n[nH]c(=O)c3ccccc23)ccc1F)N1CCN(C(=O)C2CC2)CC1 + COC1C(OC(N)=O)C(O)C(Oc2ccc3c(O)c(NC(=O)c4ccc(O)c(CC=C(C)C)c4)c(=O)oc3c2C)OC1(C)C", "answer.label": "high bracket"}
{"compound": "CCc1cc2c(N3CCc4c(cc(Cn5ccnc5)cc4-c4cn(C)nc4C(F)(F)F)C3=O)ccnc2c(OC)n1 + Cc1cccc(N(C)C(=O)C2C(O)CCN2c2nc(C)cc(C(F)(F)F)c2C#N)c1", "answer.label": "high bracket"}
{"compound": "COc1cccc2c1C(=O)c1c(O)c3c(c(O)c1C2=O)CC(O)(C(=O)CO)CC3OC1CC(N)C(O)C(C)O1 (stereo unspecified) + COC1C(OC(N)=O)C(O)C(Oc2ccc3c(O)c(NC(=O)c4ccc(O)c(CC=C(C)C)c4)c(=O)oc3c2C)OC1(C)C", "answer.label": "low bracket"}
{"compound": "C=CC(=O)N1CCN(c2nc(=O)n(-c3c(C)ccnc3C(C)C)c3nc(-c4c(O)cccc4F)c(F)cc23)C(C)C1 (stereo unspecified) + Cc1cccc(N(C)C(=O)C2C(O)CCN2c2nc(C)cc(C(F)(F)F)c2C#N)c1", "answer.label": "high bracket"}
{"compound": "CC1COCCN1c1cc(C2(S(C)(=N)=O)CC2)nc(-c2ccnc3[nH]ccc23)n1 (stereo unspecified) + COC1C(OC(N)=O)C(O)C(Oc2ccc3c(O)c(NC(=O)c4ccc(O)c(CC=C(C)C)c4)c(=O)oc3c2C)OC1(C)C", "answer.label": "low bracket"}
{"compound": "CCCS(=O)(=O)Nc1ccc(F)c(C(=O)c2c[nH]c3ncc(-c4ccc(Cl)cc4)cc23)c1F + Cc1cccc(N(C)C(=O)C2C(O)CCN2c2nc(C)cc(C(F)(F)F)c2C#N)c1", "answer.label": "low bracket"}
{"compound": "CNCc1ccc(-c2[nH]c3cc(F)cc4c3c2CCNC4=O)cc1 + COC1C(OC(N)=O)C(O)C(Oc2ccc3c(O)c(NC(=O)c4ccc(O)c(CC=C(C)C)c4)c(=O)oc3c2C)OC1(C)C", "answer.label": "high bracket"}
{"compound": "O=c1[nH]cc(F)c(=O)[nH]1 + Cc1cccc(N(C)C(=O)C2C(O)CCN2c2nc(C)cc(C(F)(F)F)c2C#N)c1", "answer.label": "low bracket"}
{"compound": "CC1COCCN1c1cc(C2(O)CC3CCC(C2)O3)c2cnn(-c3ccn[nH]3)c2n1 (stereo unspecified) + Cc1cccc(N(C)C(=O)C2C(O)CCN2c2nc(C)cc(C(F)(F)F)c2C#N)c1", "answer.label": "middle bracket"}
{"compound": "CC(C)n1c(=O)n(C)c2cnc3cc(F)c(-c4ccc(OCCCN5CCCCC5)nc4)cc3c21 + COC1C(OC(N)=O)C(O)C(Oc2ccc3c(O)c(NC(=O)c4ccc(O)c(CC=C(C)C)c4)c(=O)oc3c2C)OC1(C)C", "answer.label": "high bracket"}
{"compound": "C=CC(=O)N1CCN(c2nc(=O)n(-c3c(C)ccnc3C(C)C)c3nc(-c4c(O)cccc4F)c(F)cc23)C(C)C1 (stereo unspecified) + COC1C(OC(N)=O)C(O)C(Oc2ccc3c(O)c(NC(=O)c4ccc(O)c(CC=C(C)C)c4)c(=O)oc3c2C)OC1(C)C", "answer.label": "middle bracket"}
{"compound": "O=C(Nc1ccc(O)c(NS(=O)(=O)c2ccc(F)cc2)c1)c1ccc(-c2ccccc2)cc1 + COC1C(OC(N)=O)C(O)C(Oc2ccc3c(O)c(NC(=O)c4ccc(O)c(CC=C(C)C)c4)c(=O)oc3c2C)OC1(C)C", "answer.label": "middle bracket"}
{"compound": "COc1cccc2c1C(=O)c1c(O)c3c(c(O)c1C2=O)CC(O)(C(=O)CO)CC3OC1CC(N)C(O)C(C)O1 (stereo unspecified) + Nc1ccc(C#CCN(C(=O)Cc2ncc(C(F)(F)F)cc2C(F)(F)F)c2ccc(F)cc2)nn1", "answer.label": "low bracket"}
{"compound": "CC1COCCN1c1cc(C2(O)CC3CCC(C2)O3)c2cnn(-c3ccn[nH]3)c2n1 (stereo unspecified) + Nc1ccc(C#CCN(C(=O)Cc2ncc(C(F)(F)F)cc2C(F)(F)F)c2ccc(F)cc2)nn1", "answer.label": "middle bracket"}

* * *

- Test system: 857933-349-R-J2-PDC complex spheroid viability
- run.description: Anticancer human tumor 857933-349-R-J2-PDC cell line growth inhibition [POLQ];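 note: spheroids exposed to compounds for seven days before readout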
- assay.setup: second compound 1 µM; first compound 0.316 µM; active compounds read low

{"molecule": "COc1ccc([C@@H](O)c2cc(-c3ncnc4cc(N5CCOCC5)ccc34)c(F)cc2Cl)nn1 + Cc1cccc(N(C)C(=O)C2C(O)CCN2c2nc(C)cc(C(F)(F)F)c2C#N)c1", "viability, T/C": "119%"}
{"molecule": "CCCS(=O)(=O)Nc1ccc(F)c(C(=O)c2c[nH]c3ncc(-c4ccc(Cl)cc4)cc23)c1F + Nc1ccc(C#CCN(C(=O)Cc2ncc(C(F)(F)F)cc2C(F)(F)F)c2ccc(F)cc2)nn1", "viability, T/C": "82.1%"}
{"molecule": "C#Cc1c(F)ccc2cc(O)cc(-c3ncc4c(N5CC6CCC(C5)N6)nc(OCC56CCCN5CC(F)C6)nc4c3F)c12 (stereo unspecified) + Cc1cccc(N(C)C(=O)C2C(O)CCN2c2nc(C)cc(C(F)(F)F)c2C#N)c1", "viability, T/C": "85.6%"}
{"molecule": "COc1cccc(OCCCN)c1-c1cc(Nc2cnc(C#N)cn2)n[nH]1 + Nc1ccc(C#CCN(C(=O)Cc2ncc(C(F)(F)F)cc2C(F)(F)F)c2ccc(F)cc2)nn1", "viability, T/C": "53.9%"}
{"molecule": "CC(C)n1c(=O)n(C)c2cnc3cc(F)c(-c4ccc(OCCCN5CCCCC5)nc4)cc3c21 + Nc1ccc(C#CCN(C(=O)Cc2ncc(C(F)(F)F)cc2C(F)(F)F)c2ccc(F)cc2)nn1", "viability, T/C": "107%"}
{"molecule": "CC1COCCN1c1cc(C2(O)CC3CCC(C2)O3)c2cnn(-c3ccn[nH]3)c2n1 (stereo unspecified) + COC1C(OC(N)=O)C(O)C(Oc2ccc3c(O)c(NC(=O)c4ccc(O)c(CC=C(C)C)c4)c(=O)oc3c2C)OC1(C)C", "viability, T/C": "50.4%"}
{"molecule": "O=C(Nc1ccc(O)c(NS(=O)(=O)c2ccc(F)cc2)c1)c1ccc(-c2ccccc2)cc1 + Nc1ccc(C#CCN(C(=O)Cc2ncc(C(F)(F)F)cc2C(F)(F)F)c2ccc(F)cc2)nn1", "viability, T/C": "101%"}
{"molecule": "CCc1cc2c(N3CCc4c(cc(Cn5ccnc5)cc4-c4cn(C)nc4C(F)(F)F)C3=O)cc(C)nc2c(OC)n1 + Cc1cccc(N(C)C(=O)C2C(O)CCN2c2nc(C)cc(C(F)(F)F)c2C#N)c1", "viability, T/C": "86.3%"}
{"molecule": "CC1COCCN1c1cc(-c2ccnn2C)c2ccnc(-c3ccn[nH]3)c2n1 (stereo unspecified) + Cc1cccc(N(C)C(=O)C2C(O)CCN2c2nc(C)cc(C(F)(F)F)c2C#N)c1", "viability, T/C": "37.6%"}
{"molecule": "CCCS(=O)(=O)Nc1ccc(F)c(C(=O)c2c[nH]c3ncc(-c4ccc(Cl)cc4)cc23)c1F + Cc1cccc(N(C)C(=O)C2C(O)CCN2c2nc(C)cc(C(F)(F)F)c2C#N)c1", "viability, T/C": "99.5%"}
{"molecule": "Nc1ccn(C2OC(CO)C(O)C2(F)F)c(=O)n1 (stereo unspecified) + Cc1cccc(N(C)C(=O)C2C(O)CCN2c2nc(C)cc(C(F)(F)F)c2C#N)c1", "viability, T/C": "23.1%"}
